Target: ZFP SBS#1237 (synthetic)
Sequence (chain, as listed by the source): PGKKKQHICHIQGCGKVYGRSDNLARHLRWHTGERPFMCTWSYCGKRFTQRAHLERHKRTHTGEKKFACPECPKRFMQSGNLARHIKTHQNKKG
Experiment: EMSA
Settings: tags: MBP fusion
pKd: −log10 of the molar value.
EXPERIMENTAL_READOUT: pKd

[[record]]
binder = "GAAGGAGAG (dsDNA) DNA 1: GAAGGAGAG DNA 2: CTCTCCTTC"
test_result = 10.19

